Target: human CYP2J2, CYP2J2 (gene 1573) (UniProt P51589)
Sequence (P51589 whole entry, looked up): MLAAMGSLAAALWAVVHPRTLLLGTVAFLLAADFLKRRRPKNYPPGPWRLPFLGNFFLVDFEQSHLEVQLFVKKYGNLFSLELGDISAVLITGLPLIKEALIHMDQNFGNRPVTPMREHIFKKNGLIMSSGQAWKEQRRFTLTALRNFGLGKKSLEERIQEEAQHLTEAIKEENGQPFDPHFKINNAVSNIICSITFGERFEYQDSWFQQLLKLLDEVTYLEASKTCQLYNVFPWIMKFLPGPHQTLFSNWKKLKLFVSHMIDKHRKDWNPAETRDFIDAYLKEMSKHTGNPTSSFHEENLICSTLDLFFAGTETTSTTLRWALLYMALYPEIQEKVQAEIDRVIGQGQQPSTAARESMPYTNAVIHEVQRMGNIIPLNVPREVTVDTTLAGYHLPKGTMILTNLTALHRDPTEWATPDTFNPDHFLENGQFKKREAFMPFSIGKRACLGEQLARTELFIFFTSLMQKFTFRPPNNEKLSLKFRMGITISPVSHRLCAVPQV
Experiment: NVS_ADME_hCYP2J2: NovaScreen (NVS) CYP450-related Enzyme Activity (ADME) Assay for human CYP2J2 (AID 2283106)
Results filed as inconclusive are left out. Calls of active or inactive are those of the source. The calls were made as follows: active = hit-call score of the fitted dose curve at least 0.9, where 1 is the maximum; inconclusive = response in the unintended direction; inactive = score below 0.9.
Would you mind answering with one of these outcomes? active, inactive

Some solved entries appear below for comparison.
{"molecule": "COP(=S)(OC)Oc1ccc(SC)c(C)c1", "class-label": "active"}
{"molecule": "CC[C@H](C)[C@H]1O[C@]2(C=C[C@@H]1C)C[C@@H]1C[C@@H](C/C=C(\\C)[C@@H](O[C@H]3C[C@H](OC)[C@@H](O[C@H]4C[C@H](OC)[C@@H](O)[C@H](C)O4)[C@H](C)O3)[C@@H](C)/C=C/C=C3\\CO[C@@H]4[C@H](O)C(C)=C[C@@H](C(=O)O1)[C@]34O)O2 (tested in a mixture with another compound)", "class-label": "active"}
{"molecule": "COP(=S)(OC)Oc1ccc([N+](=O)[O-])cc1", "class-label": "active"}
{"molecule": "O=C(Nc1ccccc1)Nc1cnns1", "class-label": "inactive"}
{"molecule": "COc1nn(CSP(=S)(OC)OC)c(=O)s1", "class-label": "active"}
{"molecule": "C#CCN1C(=O)COc2cc(F)c(N3C(=O)C4=C(CCCC4)C3=O)cc21", "class-label": "active"}

As a next step, examine the molecule that follows.
Prompt line: Given CC(C)(C)C(O)/C(=C\c1ccc(Cl)cc1Cl)n1cncn1 (configuration not stated) , state the outcome it received in this test.
Response line: active
